Target: Alpha-2C adrenergic receptor (Homo sapiens)
Assay: modulators of alpha2C/GIRK thallium flux, primary screen, cell-based, HEK293 alpha2C/GIRK1/2 (AID 624);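 also: slope of fluorescence ratio to pre-addition baseline per second over 15 to 24 s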
Settings: thallium flux BTC fluorescence, at 10 µM, actives lie on both sides
I'd be grateful if you could share measured slope for these entries.
The answer should be a number; do not append a unit.

Lookup: Give its slope value. Item: COc1cc(C(O)c2nc3ccccc3n2C)cc(OC)c1OC (stereo unspecified)
Found: 0.00191

Lookup: Now give it for CC1C=CC(C)C(C(=O)O)C1C(=O)O (stereo unspecified) too.
Found: 0.00278

Lookup: Now give it for "COc1ccccc1C(=O)N1CCN(C(=O)COc2cccc(C)c2)CC1" too.
Found: 0.00401

Lookup: Now give it for "O=C(c1cc2ccccc2oc1=O)N1CCN(c2ccc(N3CCOCC3)nn2)CC1" too.
Found: 0.00513

Lookup: Now give it for "O=C(Nc1ccccc1-c1ccccc1)NC1CCN(C(=O)N2CCOCC2)CC1" too.
Found: 0.00404

Lookup: Now give it for "CCOC(=O)c1ccc(NC(=O)Nc2ccn(C)n2)cc1" too.
Found: 0.00615

Lookup: Now give it for CCOC(=O)C(CC)n1nc(C)n2c(cc3sccc32)c1=O (stereo unspecified) too.
Found: 0.0065

Lookup: Now give it for "Cn1c(=O)c2c(nc(Br)n2CCSc2nnnn2-c2ccccc2)n(C)c1=O" too.
Found: 0.00509

Lookup: Now give it for COc1cc(OC)cc(C(=O)N2c3ccc(F)cc3CCC2C)c1 (stereo unspecified) too.
Found: 0.0061

Lookup: Now give it for Cc1cccc(N2C(=O)CC(N3CCN(C(=O)c4ccccc4)CC3)C2=O)c1 (stereo unspecified) too.
Found: 0.00671

Lookup: Now give it for CCC(Oc1ccccc1)C(=O)Nc1ccccc1OC (stereo unspecified) too.
Found: 0.00497
